Sourced from patent US20250382363A1

We begin with a simple list: items and their reported Mean No of serum samples >30% inhibition (30% CCP) with SCP (serum samples).
target_desc: pre-existing anti-drug antibodies (ADA) present in human sera
protocol_summary: pre-existing ADA ELISA, scFv coated, human sera unspiked vs spiked
measurement_type: Mean No of serum samples >30% inhibition (30% CCP) with SCP (serum samples)

>>> recorded_result("PRO3307 (scFv 37-20-B03-sc09.1_(L12A, T101S, L144A, T146R)) (scFv, PRO2230 variant; VH substitutions, AHo numbering; also called PRO2230 L12A-T101S-L144A-T146R) scFv: DIQMTQSPASLSASVGDRVTITCQASQSIGTYLAWYQQKPGKPPKLLIYRAFILASGVPSRFSGSGSGTDFTLTISSLQPEDFATYYCQSNFYSDSTTIGPNAFGTGTKVTVLGGGGGSGGGGSGGGGSGGGGSEVQLVESGGGAVQPGGSLRLSCAASGFSFNSDYWIYWVRQAPGKGLEWIASIYGGSSGNTQYASWAQGRFTISRDNSKNTVYLQMNSLRAEDSAVYFCARGYVDYGGATDLWGQGTAVRVSS")
4
>>> recorded_result("PRO2945 (scFv 54-21-H03-sc01_(T101R)) (scFv, PRO1922 variant; VH substitution, AHo numbering; also called PRO1922 T101R) scFv: DIQMTQSPSSLSASVGDRVTITCQASESIYSSLAWYQQKPGKAPKLLIYLASTLASGVPSRFSGSGSGTDFTLTISSLQPEDFATYYCQSTDYTTSTHRNSFGTGTKVTVLGGGGGSGGGGSGGGGSGGGGSEVQLVESGGGLVQPGGSLRLSCAASGFSFSTTYYMCWVRQAPGKGLEWIGCTNTASSVRTYYATWAKGRFTISRDNSKNTVYLQMNSLRAEDRAVYYCARDMGFADYALNLWGQGTLVTVSS")
0
>>> recorded_result("PRO2946 (scFv 54-21-H03-sc01_(T101S)) (scFv, PRO1922 variant; VH substitution, AHo numbering; also called PRO1922 T101S) scFv: DIQMTQSPSSLSASVGDRVTITCQASESIYSSLAWYQQKPGKAPKLLIYLASTLASGVPSRFSGSGSGTDFTLTISSLQPEDFATYYCQSTDYTTSTHRNSFGTGTKVTVLGGGGGSGGGGSGGGGSGGGGSEVQLVESGGGLVQPGGSLRLSCAASGFSFSTTYYMCWVRQAPGKGLEWIGCTNTASSVRTYYATWAKGRFTISRDNSKNTVYLQMNSLRAEDSAVYYCARDMGFADYALNLWGQGTLVTVSS")
6
